Each entry below carries its reported Selectivity analysis hCA I/XII.
Target Under Test: hCA XII (Homo sapiens, UniProt O43570)
Sequence (O43570 25-354): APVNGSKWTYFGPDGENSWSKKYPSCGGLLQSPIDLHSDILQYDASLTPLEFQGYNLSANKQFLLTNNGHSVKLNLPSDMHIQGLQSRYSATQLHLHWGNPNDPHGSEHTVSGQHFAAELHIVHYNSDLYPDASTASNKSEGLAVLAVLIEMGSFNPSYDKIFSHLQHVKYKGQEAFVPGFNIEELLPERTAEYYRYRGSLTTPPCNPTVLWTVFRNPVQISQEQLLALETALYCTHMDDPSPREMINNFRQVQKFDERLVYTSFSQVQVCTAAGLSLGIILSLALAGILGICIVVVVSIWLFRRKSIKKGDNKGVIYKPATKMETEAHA
Assay Text: hCA XII inhibition, stopped-flow technique
Assay type: biochemical
Experimental Setup: SI, hCA XII over hCA I (ratio of Ki)

| Smiles Input | Target Under Test | Selectivity analysis hCA I/XII |
| --- | --- | --- |
| COc1cc(C(C)=NNC(=O)CSc2nc3ccccc3c(=O)n2CCc2ccc(S(N)(=O)=O)cc2)cc(OC)c1OC | hCA XII (Homo sapiens, UniProt O43570) | 27.09 |
| NS(=O)(=O)c1ccc(CCn2c(SCC(=O)NN=Cc3ccc4c(c3)OCO4)nc3ccccc3c2=O)cc1 | hCA XII (Homo sapiens, UniProt O43570) | 13.11 |
| COc1ccc(C(C)=NNC(=O)CSc2nc3ccccc3c(=O)n2CCc2ccc(S(N)(=O)=O)cc2)cc1OC | hCA XII (Homo sapiens, UniProt O43570) | 12.108 |
| COc1cc(C=NNC(=O)CSc2nc3ccccc3c(=O)n2CCc2ccc(S(N)(=O)=O)cc2)ccc1O | hCA XII (Homo sapiens, UniProt O43570) | 60.35 |
| COc1ccc(OC)c(C(C)=NNC(=O)CSc2nc3ccccc3c(=O)n2CCc2ccc(S(N)(=O)=O)cc2)c1 | hCA XII (Homo sapiens, UniProt O43570) | 21.21 |
